biological target: UniProt P06276
Sequence (P06276 whole entry): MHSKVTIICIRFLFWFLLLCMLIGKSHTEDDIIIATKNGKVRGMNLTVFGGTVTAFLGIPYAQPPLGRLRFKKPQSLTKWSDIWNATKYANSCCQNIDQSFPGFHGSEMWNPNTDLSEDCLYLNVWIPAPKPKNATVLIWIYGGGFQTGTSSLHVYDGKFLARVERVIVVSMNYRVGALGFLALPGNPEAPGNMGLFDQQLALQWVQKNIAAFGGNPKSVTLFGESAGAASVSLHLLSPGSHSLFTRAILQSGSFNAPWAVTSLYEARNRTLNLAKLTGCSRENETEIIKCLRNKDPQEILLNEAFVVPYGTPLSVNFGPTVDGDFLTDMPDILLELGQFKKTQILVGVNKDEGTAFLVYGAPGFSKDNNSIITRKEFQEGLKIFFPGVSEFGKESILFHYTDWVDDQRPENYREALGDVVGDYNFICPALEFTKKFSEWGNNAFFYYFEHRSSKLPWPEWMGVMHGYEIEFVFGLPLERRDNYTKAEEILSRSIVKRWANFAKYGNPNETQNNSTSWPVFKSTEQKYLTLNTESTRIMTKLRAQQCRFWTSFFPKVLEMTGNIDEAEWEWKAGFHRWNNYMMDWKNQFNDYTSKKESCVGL
Each entry falls in a class defined on IC50; the bands are bottom = under 0.6 µM, middle = from 0.6 µM up to 20 µM, top = 20 µM and over

Query: Hello team, could you let me know which band the following molecule falls into: C#CCN1CCC(CO)CC1
Result: top

Query: Which of the defined bands does the recorded IC50 of O=C(Nc1ccccc1)OCC1CCCN(Cc2ccccc2)C1 (stereo unspecified) sit within?
Result: bottom

Query: Sort CCN(C)C(=O)OCC1CCCN(C2Cc3ccccc3C2)C1 (stereo unspecified) into one of the categories.
Result: middle

Query: # classify by IC50 band: C#CCN1CCCC(COC(=O)N(C)CC)C1 (stereo unspecified)
Result: top

Query: Could you place CC(C)c1ccc(NC(=O)OCC2CCN(Cc3ccccc3)CC2)cc1 in its proper category? Many thanks.
Result: middle

Query: // bin(item) where item = CCN(C)C(=O)OC1CCN(Cc2ccccc2)CC1
Result: top

Query: Determine which band this molecule sits in: O=C(Nc1ccccc1)OCC1CCN(Cc2ccccc2)CC1
Result: bottom

Query: Pick a category. Item: C#CCN1CCCC(OC(=O)Nc2ccc(C(C)C)cc2)C1 (stereo unspecified)
Result: top

Query: Class for C#CCN1CCC(O)CC1 ?
Result: top

Query: Which category does the recorded IC50 put C#CCN1CCCC(OC(=O)N(C)CC)C1 (stereo unspecified) in?
Result: top

Query: Just checking, what class would you give C#CCN1CCC(COC(=O)Nc2ccc(C(C)C)cc2)CC1 here?
Result: top

Query: Exam item: assign CCN(C)C(=O)OCC1CCN(C2Cc3ccccc3C2)CC1 to the correct category.
Result: middle

Query: Sort OCC1CCN(Cc2ccccc2)CC1 into one of the categories.
Result: top

Query: Pick a category. Item: OC1CCN(C2Cc3ccccc3C2)CC1
Result: top

Query: State the band of C#CCN1CCCC(OC(=O)Nc2ccccc2)C1 (stereo unspecified)
Result: top

Query: Which category does the recorded IC50 put O=C(Nc1ccccc1)OCC1CCCN(C2Cc3ccccc3C2)C1 (stereo unspecified) in?
Result: bottom

Query: # bin lookup: classify C#CCN1CCC(COC(=O)Nc2ccccc2)CC1 by its IC50
Result: middle

Query: In plain terms, what class is C#CCN1CCC(OC(=O)Nc2ccc(C(C)C)cc2)CC1 ?
Result: top

Query: For the record C#CCN1CCCC(COC(=O)Nc2ccccc2)C1 (stereo unspecified) , report the class its IC50 corresponds to.
Result: top

Query: Please indicate the class for OCC1CCCN(C2Cc3ccccc3C2)C1 (stereo unspecified) based on its IC50.
Result: top

Query: # classify by IC50 band: CCN(C)C(=O)OCC1CCCN(Cc2ccccc2)C1 (stereo unspecified)
Result: middle

Query: Which class does C#CCN1CCCC(CO)C1 (stereo unspecified) fall in?
Result: top

Query: Sort CC(C)c1ccc(NC(=O)OCC2CCN(C3Cc4ccccc4C3)CC2)cc1 into one of the categories.
Result: top

Query: Hi, small favor: classify CC(C)c1ccc(NC(=O)OC2CCN(C3Cc4ccccc4C3)CC2)cc1 by its IC50 when you get a moment.
Result: top

Query: Sort into band: CCN(C)C(=O)OC1CCCN(C2Cc3ccccc3C2)C1 (stereo unspecified)
Result: middle

Query: Using the reported IC50, which band applies to CC(C)c1ccc(NC(=O)OCC2CCCN(Cc3ccccc3)C2)cc1 (stereo unspecified) ?
Result: bottom

Query: Class (by measured IC50) for OC1CCCN(Cc2ccccc2)C1 (stereo unspecified)
Result: top

Query: Please classify: O=C(Nc1ccccc1)OC1CCCN(C2Cc3ccccc3C2)C1 (stereo unspecified)
Result: bottom

Query: Category of O=C(Nc1ccccc1)OC1CCN(C2Cc3ccccc3C2)CC1 , please.
Result: middle

Query: Assign a category based on measured IC50 for CCN(C)C(=O)OCC1CCN(Cc2ccccc2)CC1 and give only the class name.
Result: top

Query: // bin(item) where item = CCN(C)C(=O)OC1CCCN(Cc2ccccc2)C1 (stereo unspecified)
Result: top

Query: Place this molecule in its band: C#CCN1CCCC(O)C1 (stereo unspecified)
Result: top

Query: State the band of O=C(Nc1ccccc1)OC1CCCN(Cc2ccccc2)C1 (stereo unspecified)
Result: bottom

Query: Textbook exercise: identify the category of the molecule given here, OCC1CCN(C2Cc3ccccc3C2)CC1 , according to its measured value.
Result: top

Query: For this molecule, which bin applies? CC(C)c1ccc(NC(=O)OCC2CCCN(C3Cc4ccccc4C3)C2)cc1 (stereo unspecified)
Result: bottom

Query: Any idea which band C#CCN1CCC(OC(=O)Nc2ccccc2)CC1 is in?
Result: middle
